Recorded inhibition, one value per entry.
# Test system: HCMV UL50-UL53 nuclear egress complex (human cytomegalovirus)
# assay-method-text: inhibitors of HCMV UL50-UL53 interaction, biochemical, HTRF (AID 1918969)
# condition-description: normalized percent inhibition, hits give high values, concentration not given here
Out of some 190,000 compounds screened, about 280 (0.15%) were called active. For the sample, actives were picked, then their nearest neighbours and some compounds at random.
Field: numeric (%). Do not append units.

| compound | value-unit | quantitative-result |
| --- | --- | --- |
| O=C(NCN1CCN(CNC(=O)c2ccccc2)CC1)c1ccccc1 | % | -42.2 |
| CC(C(=O)OCc1ccc(F)cc1)N1C(=O)c2ccccc2C1=O (configuration not stated) | % | -2.6 |
| COc1ccc(CC(=O)OCC(=O)Nc2cc(C)ccc2C)cc1 | % | 20.6 |
| CCN(CC)S(=O)(=O)c1ccc(N=Nc2c(O)[nH]c(=S)[nH]c2=O)cc1 | % | -70.2 |
| Cc1ccc(C)c(NC(=O)Cc2coc3ccc(C)cc23)c1 | % | -31.3 |

[Q] Give me measured inhibition, please, for this compound: `CCCCn1c(SCC(=O)N2CCCC2)nc2cn(C)nc2c1=O`
[A] -19.7

[Q] Answer with the recorded inhibition for the compound listed here: `Nc1c(C(=O)N2CCc3ccccc3C2)sc(=S)n1-c1ccccc1`
[A] 3.7

[Q] Retrieve inhibition measured for `CCOc1cccc(C(=O)Nc2ccccc2C(=O)OC)c1` and print it.
[A] 9.1

[Q] Please supply the value of reported inhibition for the item `O=C(COc1ccc(-c2nc(-c3ccccc3)no2)cc1)N1CCCC1`
[A] -28.2

[Q] # return recorded inhibition for input CCOC(=O)N1CCCC1C(=O)O (configuration not stated)
[A] -17.9

[Q] Return the recorded inhibition value; entry: `NC(=O)c1ccc2c3c(cccc13)CC2`
[A] -30.8

[Q] State its inhibition for this compound: `CNc1nc(OC)nc(N(C)C)n1`
[A] 11.3
